- Method description: Intrinsic clearance in mouse liver microsomes by LC/MS/MS analysis
- Assay type: ADME, Microsome
- Assay context: read-out: CLH
I'd appreciate it if you marked entries Criterion met when microsomal CLint is lower than 50 µL/min/mg and Criterion not met when it is not.

Compound: C[C@H]1CC[C@H](NC(=O)c2cc3c(Cl)cc(Cl)cc3[nH]2)CC1
Assigned label: Criterion met

Compound: C[C@H]1CC[C@@H](NC(=O)c2cc3c(Cl)cc(Cl)cc3[nH]2)CC1
Assigned label: Criterion met

Compound: CC1CCC(NC(=O)c2cc3c(Cl)cccc3[nH]2)CC1 (centres undefined)
Assigned label: Criterion not met

Lab log: compare recorded microsomal CLint with 50 µL/min/mg; is it strictly lower for "O=C(NC1CCC(F)(F)CC1)c1cc2c(Cl)cc(Cl)cc2[nH]1" ? Criterion met

Lab log: compare recorded microsomal CLint with 50 µL/min/mg; is it strictly lower for CC1CCC(NC(=O)c2cc3cc(Cl)ccc3[nH]2)CC1 (centres undefined) ? Criterion not met

Lab log: compare recorded microsomal CLint with 50 µL/min/mg; is it strictly lower for CC1CCC(NC(=O)c2cc3ccc(Cl)c(Cl)c3[nH]2)CC1 (centres undefined) ? Criterion not met

Lab log: compare recorded microsomal CLint with 50 µL/min/mg; is it strictly lower for "C[C@H]1CCCC[C@H]1NC(=O)c1cc2c(F)cc(F)cc2[nH]1" ? Criterion not met

Lab log: compare recorded microsomal CLint with 50 µL/min/mg; is it strictly lower for CC1CCC(NC(=O)c2cc3c(Cl)cc(Cl)cc3[nH]2)CC1 (centres undefined) ? Criterion met

Lab log: compare recorded microsomal CLint with 50 µL/min/mg; is it strictly lower for CC1CCC(NC(=O)c2cc3cccc(Cl)c3[nH]2)CC1 (centres undefined) ? Criterion not met

* * *

- Method description: Aqueous solubility of the compound at pH 6.8 after 24 hrs by high-throughput equilibrium solubility assay
- Type: physicochemical
- Assay context: buffer
solubility thermodynamic at 24 h for assorted compounds

Examples with answers:
Compound: CCC(CC)NC(=O)c1cc2c(C)cc(C)cc2[nH]1
Value reported: < 4 µM
--
Compound: Cc1cc(C)c2cc(C(=O)Nc3ccccc3)[nH]c2c1
Value reported: < 4 µM
--
Compound: CC1CCC(NC(=O)c2cc3c(Cl)cc(Cl)cc3[nH]2)CC1 (configuration not stated)
Value reported: < 4 µM
--
Compound: Cc1cc(C)c2cc(C(=O)NC3CCN(C)CC3)[nH]c2c1
Value reported: > 10000 µM
--
Compound: Cc1cc(C)c2c(c1)NC(C(=O)N[C@@H]1CCCC[C@@H]1C)C2 (some centres not stated)
Value reported: < 4 µM

Measured solubility thermodynamic at 24 h of "CC1(C)CCC(NC(=O)c2cc3c(Cl)cc(Cl)cc3[nH]2)CC1" : < 4 µM

Measured solubility thermodynamic at 24 h of CC1CCC(NC(=O)c2cc3c(Cl)cc(F)cc3[nH]2)CC1 (configuration not stated) : < 4 µM

Measured solubility thermodynamic at 24 h of "C[C@H]1CC[C@@H](NC(=O)c2cc3c(Cl)cc(Cl)cc3[nH]2)CC1" : < 4 µM

Measured solubility thermodynamic at 24 h of CC1CCC(NC(=O)c2cc3c(F)cc(Cl)cc3[nH]2)CC1 (configuration not stated) : < 4 µM

Measured solubility thermodynamic at 24 h of "CC1(C)CCC(NC(=O)c2cc3c(F)cc(F)cc3[nH]2)CC1" : < 4 µM

Measured solubility thermodynamic at 24 h of Cc1cc(C)c2cc(C(=O)NC3CCCCC3O)[nH]c2c1 (configuration not stated) : 56 µM

Measured solubility thermodynamic at 24 h of CC1CCC(NC(=O)c2cc3c(F)cc(F)cc3[nH]2)CC1 (configuration not stated) : < 4 µM
